- System: HCT-116
- test_method_notes: Cytostatic activity against p53-deficient human HCT116 cells after 72 hrs by MTT assay
- Assay type: functional, cell-based
- assay_context: HCT-116, 72 h
pIC50: −log10 of the molar value.
pIC50: recorded values
readout_kind: pIC50

molecular_string=COc1ncnc2c1c(-c1cc3ccccc3o1)cn2[C@@H]1O[C@H](CO)[C@@H](O)[C@H]1O value_comparator== numeric_result=4.84
molecular_string=Cc1ncnc2c1c(Br)cn2[C@@H]1O[C@H](CO)[C@@H](O)[C@H]1O value_comparator== numeric_result=4.71
molecular_string=COc1ncnc2c1c(-c1ccoc1)cn2[C@@H]1O[C@H](CO)[C@@H](O)[C@H]1O value_comparator== numeric_result=6.89
molecular_string=C#Cc1cn([C@@H]2O[C@H](CO)[C@@H](O)[C@H]2O)c2ncnc(SC)c12 value_comparator== numeric_result=7.05
molecular_string=Nc1nc2c(c(-c3ccco3)cn2[C@@H]2O[C@H](CO)[C@@H](O)[C@H]2O)c(=O)[nH]1 value_comparator=< numeric_result=4.70

###

- Tested on: BJ
- test_method_notes: Cytostatic activity against human BJ cells after 72 hrs by MTT assay
- Format: ADME, cell-based
IC50: recorded values
readout_kind: IC50 (µM)

molecular_string=Nc1ncnc2c1c(-c1cccs1)cn2[C@@H]1O[C@H](CO)[C@@H](O)[C@H]1O measured_target=BJ value_comparator== numeric_result=65.6
molecular_string=Nc1nc2c(c(-c3ccsc3)cn2[C@@H]2O[C@H](CO)[C@@H](O)[C@H]2O)c(=O)[nH]1 measured_target=BJ value_comparator=> numeric_result=100
molecular_string=CSc1ncnc2c1c(-c1cc3ccccc3o1)cn2[C@@H]1O[C@H](CO)[C@@H](O)[C@H]1O measured_target=BJ value_comparator== numeric_result=67.2
molecular_string=CN(C)c1ncnc2c1c(-c1ccoc1)cn2[C@@H]1O[C@H](CO)[C@@H](O)[C@H]1O measured_target=BJ value_comparator== numeric_result=99.2
molecular_string=Cc1nc(N)c2c(-c3ccco3)cn([C@@H]3O[C@H](CO)[C@@H](O)[C@H]3O)c2n1 measured_target=BJ value_comparator=> numeric_result=100
molecular_string=CNc1ncnc2c1c(-c1ccoc1)cn2[C@@H]1O[C@H](CO)[C@@H](O)[C@H]1O measured_target=BJ value_comparator== numeric_result=96.3
molecular_string=Nc1nc2c(c(-c3ccco3)cn2[C@@H]2O[C@H](CO)[C@@H](O)[C@H]2O)c(=O)[nH]1 measured_target=BJ value_comparator=> numeric_result=100
molecular_string=Nc1nc(N)c2c(-c3cccs3)cn([C@@H]3O[C@H](CO)[C@@H](O)[C@H]3O)c2n1 measured_target=BJ value_comparator=> numeric_result=100
molecular_string=COc1ncnc2c1c(-c1cc3ccccc3o1)cn2[C@@H]1O[C@H](CO)[C@@H](O)[C@H]1O measured_target=BJ value_comparator== numeric_result=22.4

###

- System: K562
- test_method_notes: Cytostatic activity against human K562 cells after 72 hrs by MTT assay
- Assay type: functional, cell-based
- assay_context: K562, 72 h
readout_kind: IC50

molecular_string=CSc1ncnc2c1ccn2[C@@H]1O[C@H](CO)[C@@H](O)[C@H]1O result="> 20 µM"
molecular_string=Nc1nc2c(c(-c3cccs3)cn2[C@@H]2O[C@H](CO)[C@@H](O)[C@H]2O)c(=O)[nH]1 result="> 20 µM"
molecular_string=Cc1nc(N)c2ccn([C@@H]3O[C@H](CO)[C@@H](O)[C@H]3O)c2n1 result="> 20 µM"
molecular_string=O=c1[nH]cnc2c1c(-c1ccco1)cn2[C@@H]1O[C@H](CO)[C@@H](O)[C@H]1O result="15.5 µM"
molecular_string=CN(C)c1ncnc2c1c(I)cn2[C@@H]1O[C@H](CO)[C@@H](O)[C@H]1O result="0.07 µM"
molecular_string=COc1nc(N)nc2c1c(-c1cc3ccccc3o1)cn2[C@@H]1O[C@H](CO)[C@@H](O)[C@H]1O result="14.6 µM"
molecular_string=Nc1nc2c(c(-c3ccccc3)cn2[C@@H]2O[C@H](CO)[C@@H](O)[C@H]2O)c(=O)[nH]1 result="> 20 µM"
molecular_string=O=c1[nH]cnc2c1c(-c1ccccc1)cn2[C@@H]1O[C@H](CO)[C@@H](O)[C@H]1O result="> 20 µM"
molecular_string=Cc1nc(N)c2c(-c3ccco3)cn([C@@H]3O[C@H](CO)[C@@H](O)[C@H]3O)c2n1 result="> 20 µM"

###

- test_method_notes: Cytostatic activity against human CEM-DNR-bulk cells after 72 hrs by MTT assay
- Assay type: functional, cell-based
pIC50: −log10 of the molar value.
readout_kind: pIC50

molecular_string=Nc1nc(N)c2c(-c3ccco3)cn([C@@H]3O[C@H](CO)[C@@H](O)[C@H]3O)c2n1 readout_kind=pIC50 result="< 4.70"
molecular_string=Nc1nc2c(c(-c3cccs3)cn2[C@@H]2O[C@H](CO)[C@@H](O)[C@H]2O)c(=O)[nH]1 readout_kind=pIC50 result="< 4.70"
molecular_string=Cc1nc(N)c2ccn([C@@H]3O[C@H](CO)[C@@H](O)[C@H]3O)c2n1 readout_kind=pIC50 result="< 4.70"
molecular_string=CNc1ncnc2c1c(-c1cccs1)cn2[C@@H]1O[C@H](CO)[C@@H](O)[C@H]1O readout_kind=pIC50 result="< 4.70"
molecular_string=O=c1[nH]cnc2c1c(-c1ccco1)cn2[C@@H]1O[C@H](CO)[C@@H](O)[C@H]1O readout_kind=pIC50 result="< 4.70"
molecular_string=CSc1ncnc2c1c(-c1ccoc1)cn2[C@@H]1O[C@H](CO)[C@@H](O)[C@H]1O readout_kind=pIC50 result="< 4.70"
molecular_string=Cc1nc(N)c2c(-c3cc4ccccc4o3)cn([C@@H]3O[C@H](CO)[C@@H](O)[C@H]3O)c2n1 readout_kind=pIC50 result=5.20
molecular_string=Nc1nc(N)c2c(-c3ccccc3)cn([C@@H]3O[C@H](CO)[C@@H](O)[C@H]3O)c2n1 readout_kind=pIC50 result="< 4.70"
molecular_string=COc1ncnc2c1c(-c1cccs1)cn2[C@@H]1O[C@H](CO)[C@@H](O)[C@H]1O readout_kind=pIC50 result=4.92
molecular_string=COc1ncnc2c1c(-c1ccsc1)cn2[C@@H]1O[C@H](CO)[C@@H](O)[C@H]1O readout_kind=pIC50 result=5.12

###

- Tested on: BJ
- test_method_notes: Cytostatic activity against human BJ cells after 72 hrs by MTT assay
- Type: ADME, cell-based
readout_kind: IC50 (µM)

molecular_string=Cc1ncnc2c1ccn2[C@@H]1O[C@H](CO)[C@@H](O)[C@H]1O value_comparator== numeric_result=0.07
molecular_string=C#Cc1cn([C@@H]2O[C@H](CO)[C@@H](O)[C@H]2O)c2nc(C)nc(N)c12 value_comparator=> numeric_result=100
molecular_string=COc1ncnc2c1c(-c1cccs1)cn2[C@@H]1O[C@H](CO)[C@@H](O)[C@H]1O value_comparator== numeric_result=62.8
molecular_string=C#Cc1cn([C@@H]2O[C@H](CO)[C@@H](O)[C@H]2O)c2nc(N)nc(OC)c12 value_comparator=> numeric_result=100
molecular_string=Cc1nc(N)c2c(-c3cccs3)cn([C@@H]3O[C@H](CO)[C@@H](O)[C@H]3O)c2n1 value_comparator=> numeric_result=100

###

- Test system: K562
- test_method_notes: Cytostatic activity against human K562 cells after 72 hrs by MTT assay
- Assay type: functional, cell-based
- assay_context: K562, 72 h
pIC50: −log10 of the molar value.
readout_kind: pIC50

molecular_string=CSc1ncnc2c1c(-c1ccsc1)cn2[C@@H]1O[C@H](CO)[C@@H](O)[C@H]1O measured_target=K562 readout_kind=pIC50 value_comparator== numeric_result=6.35
molecular_string=COc1ncnc2c1c(-c1ccco1)cn2[C@@H]1O[C@H](CO)[C@@H](O)[C@H]1O measured_target=K562 readout_kind=pIC50 value_comparator== numeric_result=7.22
molecular_string=COc1nc(N)nc2c1c(-c1ccco1)cn2[C@@H]1O[C@H](CO)[C@@H](O)[C@H]1O measured_target=K562 readout_kind=pIC50 value_comparator=< numeric_result=4.70
molecular_string=Cc1nc(N)c2c(-c3cc4ccccc4o3)cn([C@@H]3O[C@H](CO)[C@@H](O)[C@H]3O)c2n1 measured_target=K562 readout_kind=pIC50 value_comparator== numeric_result=4.80
molecular_string=CN(C)c1ncnc2c1c(-c1ccsc1)cn2[C@@H]1O[C@H](CO)[C@@H](O)[C@H]1O measured_target=K562 readout_kind=pIC50 value_comparator== numeric_result=6.28
molecular_string=COc1ncnc2c1c(-c1ccoc1)cn2[C@@H]1O[C@H](CO)[C@@H](O)[C@H]1O measured_target=K562 readout_kind=pIC50 value_comparator== numeric_result=6.72
molecular_string=Cc1ncnc2c1c(-c1ccco1)cn2[C@@H]1O[C@H](CO)[C@@H](O)[C@H]1O measured_target=K562 readout_kind=pIC50 value_comparator== numeric_result=7.40
molecular_string=Nc1nc(N)c2c(-c3cc4ccccc4o3)cn([C@@H]3O[C@H](CO)[C@@H](O)[C@H]3O)c2n1 measured_target=K562 readout_kind=pIC50 value_comparator== numeric_result=4.73
molecular_string=CSc1ncnc2c1c(-c1ccccc1)cn2[C@@H]1O[C@H](CO)[C@@H](O)[C@H]1O measured_target=K562 readout_kind=pIC50 value_comparator=< numeric_result=4.70
